- SYSTEM_UNDER_TEST: Ba/F3-FGFR3-transfected cells (Homo sapiens, UniProt P22607)
- Sequence (P22607 whole entry, change not shown): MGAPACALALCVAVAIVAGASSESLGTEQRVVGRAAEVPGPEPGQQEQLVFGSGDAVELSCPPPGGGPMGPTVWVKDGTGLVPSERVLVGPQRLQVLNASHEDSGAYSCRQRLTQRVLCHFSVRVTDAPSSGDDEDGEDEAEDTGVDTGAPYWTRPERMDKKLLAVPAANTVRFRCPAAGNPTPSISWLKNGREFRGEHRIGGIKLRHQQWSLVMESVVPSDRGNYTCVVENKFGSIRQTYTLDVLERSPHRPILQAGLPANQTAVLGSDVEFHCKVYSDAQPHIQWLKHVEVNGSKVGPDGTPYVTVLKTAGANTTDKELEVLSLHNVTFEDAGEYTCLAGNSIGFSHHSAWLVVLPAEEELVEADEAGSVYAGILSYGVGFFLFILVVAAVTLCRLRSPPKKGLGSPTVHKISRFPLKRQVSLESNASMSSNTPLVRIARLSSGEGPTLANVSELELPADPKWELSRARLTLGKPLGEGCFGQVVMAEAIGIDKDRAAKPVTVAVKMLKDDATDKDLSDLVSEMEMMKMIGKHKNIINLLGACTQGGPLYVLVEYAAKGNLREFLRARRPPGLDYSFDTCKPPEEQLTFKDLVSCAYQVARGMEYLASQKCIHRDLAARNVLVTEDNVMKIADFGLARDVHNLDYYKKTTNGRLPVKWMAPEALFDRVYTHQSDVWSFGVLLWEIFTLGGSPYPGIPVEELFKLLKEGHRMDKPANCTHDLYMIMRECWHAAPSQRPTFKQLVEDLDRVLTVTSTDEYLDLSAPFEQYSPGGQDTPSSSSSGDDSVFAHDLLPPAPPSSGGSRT
- EXPERIMENTAL_PROTOCOL: Ba/F3-FGFR3 (minus IL3) cellular proliferation assay, Alamar Blue
- Assay type: cell-based
- COND: minus IL3, 96 well
// values below are reported BAF3-FGFR 3 (MIN IL3) 96 well pIC50

Which BAF3-FGFR 3 (MIN IL3) 96 well pIC50 value is on record for `COc1cc(OC)cc(N(CC2CC2)c2ccc3ncc(-c4cccn4C)nc3c2)c1` ? <5

Which BAF3-FGFR 3 (MIN IL3) 96 well pIC50 value is on record for `COc1cc(OC)cc(N(CC2CC2)c2ccc3ncc(-c4nnn(C)n4)nc3c2)c1` ? 5.18

Which BAF3-FGFR 3 (MIN IL3) 96 well pIC50 value is on record for `COc1cc(OC)cc(N(CC2CC2)c2ccc3ncc(-c4cnnn4C)nc3c2)c1` ? <5

Which BAF3-FGFR 3 (MIN IL3) 96 well pIC50 value is on record for `COc1cc(OC)cc(N(CC2CC2)c2ccc3ncc(C(=O)N4CCC4)nc3c2)c1` ? <5

---

- SYSTEM_UNDER_TEST: FGFR4 (h) (Homo sapiens, UniProt P22455)
- Sequence (P22455 22-802): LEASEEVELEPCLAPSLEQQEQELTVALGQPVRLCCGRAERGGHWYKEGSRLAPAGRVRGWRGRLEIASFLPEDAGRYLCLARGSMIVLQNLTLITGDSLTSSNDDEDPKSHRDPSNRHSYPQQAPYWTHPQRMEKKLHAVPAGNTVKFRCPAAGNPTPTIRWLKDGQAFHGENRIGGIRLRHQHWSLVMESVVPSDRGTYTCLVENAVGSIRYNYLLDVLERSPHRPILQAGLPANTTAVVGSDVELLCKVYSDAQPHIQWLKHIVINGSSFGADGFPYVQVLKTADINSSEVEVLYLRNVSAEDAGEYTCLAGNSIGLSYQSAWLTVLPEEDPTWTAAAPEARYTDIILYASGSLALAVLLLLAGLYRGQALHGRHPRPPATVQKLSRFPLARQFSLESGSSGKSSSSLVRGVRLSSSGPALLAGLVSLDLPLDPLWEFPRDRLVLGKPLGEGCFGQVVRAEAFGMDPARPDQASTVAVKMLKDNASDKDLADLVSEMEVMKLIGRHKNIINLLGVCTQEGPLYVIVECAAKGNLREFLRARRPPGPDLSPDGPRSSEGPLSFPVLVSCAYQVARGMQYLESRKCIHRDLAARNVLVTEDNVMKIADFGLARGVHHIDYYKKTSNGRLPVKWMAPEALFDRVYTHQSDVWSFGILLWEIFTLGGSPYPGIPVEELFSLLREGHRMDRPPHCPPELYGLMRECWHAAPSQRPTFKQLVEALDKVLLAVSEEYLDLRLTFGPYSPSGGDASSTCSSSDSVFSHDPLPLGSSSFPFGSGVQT
- EXPERIMENTAL_PROTOCOL: FGFR4 (enzymatic assay), TR-FRET
- Type: biochemical
- COND: read-out: FGFR 4 pIC50 (converted)
RESULT_TYPE: IC50

# GIVEN_SMILES, IC50
records = [
    ("COc1cc(OC)cc(N(CCO)c2ccc3ncc(C4=CCN(C(=O)OC(C)(C)C)CC4)nc3c2)c1", "56.2 nM"),
]

Which IC50 value is on record for `COc1cc(OC)cc(N(Cc2cccc(CN)n2)c2ccc3ncc(-c4ccc(N)nc4)nc3c2)c1` ? 69.2 nM

Which IC50 value is on record for `COc1cc(OC)cc(N(CCCO)c2ccc3ncc(-c4cccnc4F)nc3c2)c1` ? 166 nM

Which IC50 value is on record for `COc1cc(OC)cc(N(CC2CC2)c2ccc3ncc(-n4cnc(C)c4)nc3c2)c1` ? 214 nM

---

// values below are reported IC50
- SYSTEM_UNDER_TEST: FGFR3 (h) (Homo sapiens, UniProt P22607)
- EXPERIMENTAL_PROTOCOL: FGFR3 (enzymatic assay), TR-FRET
- Type: biochemical
- COND: read-out: FGFR 3 pIC50 (converted)
Respond numerically; units are µM and should not be typed.

Sample answers from the record:
# GIVEN_SMILES, IC50 [µM]
rows = [
    ("CO/N=C(\\C)c1cnc2ccc(N(CCO)c3cc(OC)cc(OC)c3)cc2n1", 0.0389),
    ("COc1cc(OC)cc(N(CCO)c2ccc3ncc(C(=O)Nc4cnn(C)c4)nc3c2)c1", 0.11),
    ("COc1cc(OC)cc(N(CCO)c2ccc3ncc(-c4ccccc4)nc3c2)c1", 0.00398),
    ("COc1cc(OC)cc(N(CCO)c2ccc3ncc(/C(C)=N/OC(C)(C)C)nc3c2)c1", 0.501),
    ("COc1cc(OC)cc(N(CCNC(C)C)c2ccc3ncc(C(=O)NCCN4CCOCC4)nc3c2)c1", 0.0912),
]

Which IC50 value is on record for `COc1cc(OC)cc(N(CCO)c2ccc3ncc(C4=CCN(C(=O)OC(C)(C)C)C4)nc3c2)c1` ? 0.0102

Which IC50 value is on record for `COc1cc(OC)cc(N(CC2CC2)c2ccc3ncc(-c4nnn(C)n4)nc3c2)c1` ? 0.148

Which IC50 value is on record for `COc1cc(OC)cc(N(CCCNC(C)C)c2ccc3ncc(-c4ccnc(NC(=O)OC(C)(C)C)c4)nc3c2)c1` ? 0.00851

Which IC50 value is on record for `COc1cc(OC)cc(N(CCCNCC(F)(F)F)c2ccc3ncc(-c4ccc(N(C)C(=O)OC(C)(C)C)nc4)nc3c2)c1` ? 0.331

Which IC50 value is on record for `COc1cc(OC)cc(N(CC2CC2)c2ccc3ncc(-c4ocnc4C)nc3c2)c1` ? 0.117

Which IC50 value is on record for `COc1cc(OC)cc(N(CCCO)c2ccc3ncc(-c4cccnc4F)nc3c2)c1` ? 0.0355

Which IC50 value is on record for `COc1cc(OC)cc(N(CCNC(C)C)c2ccc3ncc(-c4cccnc4)nc3c2)c1` ? 0.0102

Which IC50 value is on record for `CNC(=O)c1cc(-c2cnc3ccc(N(CCNC(C)C)c4cc(OC)cc(OC)c4)cc3n2)ccn1` ? 0.00955
